Dear all, I have gathered published IC50 values for Prostaglandin G/H synthase 1 (Ovis aries, UniProt P05979); the list follows.

For the compound shown here, COC1(c2cccc(COc3ccccc3OCc3ccccc3)c2)CCOCC1 , give the reported IC50. > 100 µM

For the compound shown here, COc1ccc(-c2nn(-c3ccccc3)cc2-c2nnc(-c3ccncc3)o2)cc1 , give the reported IC50. > 100 µM

For the compound shown here, CCCC/C(=C\c1cc(OCc2csc(-c3ccc(C(F)(F)F)cc3)n2)ccc1OCc1ccc(C(F)(F)F)cc1)C(=O)O , give the reported IC50. > 10 µM

For the compound shown here, COc1ccc2c(c1)c(CC(=O)Nc1cc(OC)c(OC)c(OC)c1)c(C)n2C(=O)c1ccc(Cl)cc1 , give the reported IC50. > 66 µM

For the compound shown here, O=C(O)Cn1c2c(c3ccccc31)CN(C(=O)c1cccc3ccccc13)CC2 , give the reported IC50. > 10 µM

For the compound shown here, CC(C)(C)c1nc(-c2ccncc2)c(-c2ccccc2)[nH]1 , give the reported IC50. 5 µM

For the compound shown here, COc1ccc(C2=C(c3ccc(Oc4ccc(F)cc4)cc3)C(=O)OC2)cc1 , give the reported IC50. > 25 µM

For the compound shown here, CCN(CC)c1ccc2c(c1)Oc1cc(N(CC)CC)ccc1C21c2ccccc2C(=O)N1CCNS(=O)(=O)c1ccc(-n2nc(C(F)(F)F)cc2-c2ccc(C)cc2)cc1 , give the reported IC50. > 100 µM

For the compound shown here, CCCCCCC(Sc1nc(Cl)cc(Nc2cc(C)c(-c3ccccc3)cc2OC)n1)C(=O)O (centres undefined) , give the reported IC50. > 10 µM
